Below, each of the compounds is paired with its reported EC50 value.
Tested on: Vero
Experiment: cells
Conditions: Chlorocebus sabaeus

| compound | EC50 |
| --- | --- |
| Nc1ncnc2c1ncn2C1CC(O)C(C=O)O1 (stereo unspecified) | > 400 mg/L |
| Nc1ncnc2c1ncn2C1O[C@H](/C=N/OCc2ccccc2)[C@@H](O)[C@H]1O (stereo partly specified) | > 40 mg/L |
| CO/N=C/[C@H]1OC(n2cnc3c(N)ncnc32)[C@H](O)[C@@H]1O (stereo partly specified) | 150 mg/L |
| Nc1ncnc2c1ncn2C1OC(C=O)CC1O (stereo unspecified) | > 400 mg/L |
| Nc1ncnc2c1ncn2C1O[C@H](C(O)O)[C@@H](O)[C@@H]1O (stereo partly specified) | > 400 mg/L |
| CCO/N=C/[C@H]1OC(n2cnc3c(N)ncnc32)[C@H](O)[C@@H]1O (stereo partly specified) | > 200 mg/L |
| Nc1ncnc2c1ncn2C[C@H](O)CO [(S)-DHPA] | 20 mg/L |
| Nc1ncnc2c1ncn2[C@@H]1O[C@H](C=O)[C@@H](O)[C@H]1O | 300 mg/L |
| Nc1ncnc2c1ncn2C1CC(O)C(/C=N/O)O1 (stereo unspecified) | > 100 mg/L |
| O=c1[nH]c(=O)n([C@H]2C[C@H](O)[C@@H](CO)O2)cc1/C=C/Br | > 400 mg/L |
| Nc1ncnc2c1ncn2[C@@H]1O[C@H](C=NO)[C@@H](O)[C@@H]1O | > 100 mg/L |
